All figures here come from the supplement of paper PMC12645437.

studyTarget: T1, CRBN, Q96SW2;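 further: pooled lentiviral library of zinc finger degron-EGFP fusions in mCherry-positive Jurkat cells, FACS-sorted after compound exposure, with degron abundance counted by next-generation sequencing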
T1 chain: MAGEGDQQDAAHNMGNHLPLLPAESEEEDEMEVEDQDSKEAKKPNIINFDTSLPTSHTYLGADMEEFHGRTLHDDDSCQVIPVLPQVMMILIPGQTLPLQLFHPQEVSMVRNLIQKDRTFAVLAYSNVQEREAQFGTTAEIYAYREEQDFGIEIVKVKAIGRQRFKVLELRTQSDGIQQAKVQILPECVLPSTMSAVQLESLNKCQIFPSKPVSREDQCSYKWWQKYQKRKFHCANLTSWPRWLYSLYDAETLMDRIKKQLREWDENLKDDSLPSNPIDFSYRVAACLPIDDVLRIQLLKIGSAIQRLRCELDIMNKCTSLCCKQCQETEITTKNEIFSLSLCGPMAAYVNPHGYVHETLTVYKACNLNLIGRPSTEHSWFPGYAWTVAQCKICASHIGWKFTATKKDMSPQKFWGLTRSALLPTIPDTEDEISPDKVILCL
assayText: log2 fold change of degron read counts, EGFP-low vs EGFP+ sorted cells (limma voom), compound-induced degradation; higher = more compound-induced degradation of the degron-EGFP fusion; degrons are variants of IKZF1/3 zinc finger 2; compound dose not given here
conditionInfo: Jurkat; 18 h; compound: thalidomide
In all, about 8,300 sequences were measured (“log2 fold change of degron read counts, EGFP-low vs EGFP+ sorted cells (limma voom), compound-induced degradation”: median about -1.1, highest 2% from about 3.2 on). The entries come from a sample that favours the highest values as a whole.
# label = 1 (yes) if log2 fold change of degron read counts >= 1 else 0 (no)

FTCNQCGRMFTQKGNLLRHIKL [46F_47T_49N_50Q_52G_53R_54M_55F_67L_, Q9UKT9]    0 (no)
FQCEICGAVFTQKGNLLRHIKL [46F_47Q_49E_50I_52G_53A_54V_55F_67L_, Q9UKT9]    1 (yes)
FACPVCGAPFTQKGNLLRHIKL [46F_47A_49P_50V_52G_53A_54P_55F_67L_, Q9UKT9]    1 (yes)
FGCPICGAAFTQKGNLLRHIKL [46F_47G_49P_50I_52G_53A_54A_55F_67L_, Q9UKT9]    1 (yes)
FYCDQCGAFFTQKGNLLRHIKL [46F_47Y_49D_50Q_52G_53A_54F_55F_67L_, Q9UKT9]    0 (no)
FNCPICGAAFTQKGNLLRHIKL [46F_47N_49P_50I_52G_53A_54A_55F_67L_, Q9UKT9]    1 (yes)

Form field: log2 fold change of degron read counts at least 1? Entry: FQCPICGAAFTQKGNLLRHIKL [46F_47Q_49P_50I_52G_53A_54A_55F_67L_, Q9UKT9]
1 (yes)
